TARGET_ENTITY: Endothelin receptor type B (Homo sapiens, UniProt P24530)
Sequence (P24530 whole entry): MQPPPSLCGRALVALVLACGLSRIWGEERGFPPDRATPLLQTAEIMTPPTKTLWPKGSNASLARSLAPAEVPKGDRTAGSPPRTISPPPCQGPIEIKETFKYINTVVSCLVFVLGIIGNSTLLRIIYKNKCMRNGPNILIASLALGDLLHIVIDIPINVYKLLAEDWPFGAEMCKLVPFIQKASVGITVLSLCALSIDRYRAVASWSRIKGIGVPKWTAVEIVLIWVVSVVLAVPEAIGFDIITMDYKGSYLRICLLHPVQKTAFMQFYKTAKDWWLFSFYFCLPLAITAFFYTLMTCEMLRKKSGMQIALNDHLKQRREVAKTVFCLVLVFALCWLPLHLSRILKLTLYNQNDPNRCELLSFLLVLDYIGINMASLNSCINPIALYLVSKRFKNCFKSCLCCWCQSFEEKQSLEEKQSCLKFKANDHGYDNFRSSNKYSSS
TEST_DETAILS: Ability to block the ET-1-induced hydrolysis of inositol phosphate in Endothelin B receptor of chinese hamster ovary(CHO) cells.
Format: functional
PROPERTY_MEASURED: IC50 (nM)

// below: answered molecules
> print(dat)
                                   molecule  property.measured  test.value
1  CCCCCS(=O)(=O)N(CCC)CCN1C[C@H](c2ccc3c(c2)OCO3)[C@@H](C(=O)O)[C@@H]1c1ccc(OC)c(F)c1 (stereo in doubt; 15b)               IC50        1.28
2  CCCN(CCN1C[C@H](c2ccc3c(c2)OCO3)[C@@H](C(=O)O)[C@@H]1c1ccc(OC)c(F)c1)S(=O)(=O)CCCCl (stereo in doubt; 15d)               IC50        0.83
3  CCCN(CCN1C[C@H](c2ccc3c(c2)OCO3)[C@@H](C(=O)O)[C@@H]1c1ccc(OC)c(F)c1)S(=O)(=O)CCCC(F)(F)F (stereo in doubt; 15e)               IC50        1.46

1 = CCCCCCS(=O)(=O)N(CCC)CCN1C[C@H](c2ccc3c(c2)OCO3)[C@@H](C(=O)O)[C@@H]1c1ccc(OC)c(F)c1 (stereo in doubt; 15c)
2 = CCCCS(=O)(=O)N(CCC)CCN1C[C@H](c2ccc3c(c2)OCO3)[C@@H](C(=O)O)[C@@H]1c1ccc(OC)c(F)c1 (stereo in doubt; 15a)
IN: // returns 1 or 2 , whichever has the lower IC50 Write down the label attached to your selection.
OUT: 2
(2: 0.6 nM, 1: 1.12 nM)

Entry source: ChEMBL document CHEMBL1130174
